Field: GI50. Provide a value for each of the compounds that follow.
- Test system: ACHN
- protocolSummary: NCI tumour cell line growth inhibition, 48 h
Active and inactive are the calls of the source. No stated cut-off is given here; in the data, active = GI50 up to about 1.1 µM and inactive = higher.

// worked examples, GI50 included
In [3]: df
Out[3]:
                                   compound  observedproperty                   val
0  N=C(/C=C/c1ccc(-c2cn3cc(/C=C/C(=N)N4CCCC4)ccc3n2)cc1)N1CCCC1              GI50    68.9 µM (inactive)
1  COC(=O)/C=C\c1ccc2c(c1)CC1(C2)Cc2ccc(/C=C/C(=O)OC)cc2C1 (stereo not drawn)              GI50  > 31.6 µM (inactive)
2  Cc1ccccc1/N=C/c1ccc(N(CCC#N)S(=O)(=O)c2ccccc2)cc1              GI50   > 100 µM (inactive)

Respectfully, I request GI50 for each entry included below.
1. O/N=N/c1cnccn1
2. CC[C@@H](C)[C@H](NC(=O)[C@H](Cc1ccccc1)NCC(F)(F)F)C(=O)OC(C)(C)C

["480 µM (inactive)", "> 100 µM (inactive)"]

Respectfully, I request GI50 for each entry included below.
1. N#Cc1ccc(C(=O)/C=C/c2ccc(O)c(O)c2)cc1
2. COC1(Cc2ccccc2)C(=O)c2ccccc2N1C(C)=O (stereo not drawn)
3. C[C@@H]1OC2(O)[C@@H]3CCCN3C(=O)N(Cc3ccccc3)N2C1=O (stereo partly drawn)

["17.3 µM (inactive)", "> 100 µM (inactive)", "> 100 µM (inactive)"]
